# Target Or System: GPNMB-V5His (recombinant human GPNMB extracellular domain with C-terminal V5-His tag) (human) (UniProt Q14956)
# Method: ELISA, coated GPNMB, Ab 1 ug/mL
Test Readout: Avg OD (OD)
Just the number please, in OD, no unit attached.

binder="2-7 (hybridoma of Table 6) (antibody, V domains shown) VH: QVQLEQSGGGVVQPGRSLRLSCAASGFTFNNYGMHWVRQAPGKGLEWVAVIWYDGSNKYYADSVKGRFTISRDNSKNTLYLQMNSLRAEDTAVYYCAKDEEYYYVSGLDYWGQGTLVTVSS VL: LTQSPSSLSASVRDRVTITCRASQDISNYLAWYQQKPGKVPNLLIYAASTLQSGVPSRFSGSGSGTDFTLTISSLQPEDVATYYCQKYNSAPLTFGGGTKVEIKR" test_readout="Avg OD" result=0.719

Exam item: Any idea what its Avg OD is? The binder is 2-22 (hybridoma of Table 6) (antibody, V domains shown) VH: QVQLEQSGPGLVKPSQNLSLTCTVSGGSISSGGYFWSWIRQHPGKGLEWIGYIYYSGNTYYNPSLKSRVTISVDTSKNQFSLKLSSVTAADTAVYYCARDYYYDTSGFSYRYDWYYGMDVWGQGTTVTVSS VL: DIQLTQSPSSLSASVGDRVTITCRASQGIRNDLGWYQQKPGKAPKRLIYAASSLQNGVPSRFSGSGSGTEFTLTISSLQPEDFATYYCLQHNTYPAFGQGTKVEIKR
Marked response: 0.707
